Assay: soluble on expression in E. coli; label from the status in PepcDB or PDB records
parameter_measured: soluble on expression in E. coli

MSKKPTSAYVHIPFCTQICYYCDFSKVFIQNQPVDAYLKALIQEFDSYGIRDLKTLYIGGGTPTAITAKQLEYLLNHLERNLNLDDLEEFTIEANPGDLTPEKIAVLQRSAVNRISLGVQTFNNKQLKQIGRSHNEEQIYSTIANLKTAGFHNISIDLIYALPGQTLDQVKENVAKALALDIPHLSLYSLILEHHTVFMNKMRRGKLNLPTEDLEAEMFEYIISEMEANGFEH not soluble
IKDFNYGVKFVLSDDQRKVTRYPNEELNRNQWYAGRMDGLVWGYETVGIAKTDAEMEAHLASLPNGGQSQLGSKWAAGDIMYKDLNGDGKISSGDGTLNDLGDLKVVANTQLRFKYGLTLDASWKGFDFSAFFQGVGKRDVVVGGPYFWGANGQGMWQAAAFKDHMDYFRPEDTESVFGPNVDAYYPRVIFGGGSSEGGKNTLTQSRYVQNGAYIRLKNLQLGYTLPSTITKKFAVNSLRVYVSGDNLWTGTKMRVFDPEVLGSTGDAGKAYPLARVWSVGLNVNF not soluble

###

Test: soluble on expression in E. coli; label from the status in PepcDB or PDB records
parameter_measured: soluble on expression in E. coli

MVIELKNEKVTVQFKEFGGALSSIKDQDGIEYLWQGNPAYWSSQAPVLFPICGSLRNDKGIYTSKKHSHRYGSIPRHGLVRKKNFRFEQLGKDSVVFTITPDKEMLMQYPYHFELKIIYTLKHTTIRTEYQVINKEKESIMPYFIGGHPGLNCPLFAGDRYEDYYLEFEKEETCTVPKSFPDTGLLDLQDRKIFLKGQKYLDLDYSLFTHDAITLDNLQSRSVSLRSKNHGGGLRLDFADFPYLILWSTANKSPFIALEPWSGLSTAVDESDYFEEKRNVSFVEPGQFDRNYFDITVLLEHHHHHH soluble
MGHHHHHHSHMMQESGTETKSNGSAIQNGSGGSNHLLECGGLREGRSNGETPAVDIGAADLAHAQQQQQQWHLINHQPSRSPSSWLKRLISSPWELEVLQVPLWGAVAETKMSGPVCQPNPSPF not soluble
GPGSMSVSATPYKRQDAITAKTVLLGESAVGKSSIALRFARNEFSSNQETTIGAAFLSRSVTVSATSQSGGGGAVANAASGTIKFEIWDTAGQERYRSLAPIYYRGACGALVVYDITSAESLKKAQMWMRELRANADPTLLIILVGNKKDMESLRQVSYEDGAAVAQEEDVNGFFEVSAKENVNVEEVFAKLARLLLEHGLGANSGPGSLSGPRGAQRLEPPTRQQKKEGGCAC not soluble
METEIKRTSTKDIIAYLTEKFPECFSIKGPVKPLKIGIFQDLAEKLDDDETVSKTRLRQALRHYTSSWRYLKVIKVGNSRVDVDGKDVAEIDEDQAAYASKTLKESQEKFGNKKATDNDAKKPYKGKQGSTEAANNKPADKKRESTKFKTVKSTPKKTVKKEVEPLKSVESTTINVGSKVRVQLGNSPMKATITEISGKDISVQLDSGMVIKTQLQNIYL not soluble
MAHHHHHHMSWRTRVVRCPLQEPHNPFDMGRVMQRFWSPFCKGVKGPDLHTYGFGETFSGMRTHDSDFTCQVNGQVGGAKLVEDFFITLLCGFDFEHVKVERHLTTSGAADPCQFQGTIVLAHTRPFLGWCPQPVTHSLEKCPSPSECDATKVSTNNINELGNTTATASRCLVQTGGNTEAPVPSLILNVPFTARLEGNVGRISHMILRSPAIGVIAAHQCCPAEVGSCLQNPEALQALVTLRRANVRPEMITDRTLVGITAKKAAWCSALGIL not soluble
MHIQIDGIPIEILRKPIKNLNLRIYPPDGLVKVSVPLKYSEQLIKQQLQEKSKWIRAQCEQIRARSFYREPSLQTGATIPFKGKSYLLIVEEHYGPSQILIKNELIYCYTKPDLTPQQKQNILDRWYRKEMNLVIPRLIQQWEAIMKVKINQWGIKKMKTRWGSCNPRAQRIWLNLNLIKKPLECLEYVLVHEMVHILEASHNKRFYALMTQFMPKWQEYQRILEGTPNASTFARLEHHHHHH not soluble
MYETIVSSRGSSFFVSQGKTGEQVYRCQVNREQCPNTLPIDKHIDLVRKYIRAFLYRFAGMTSLNETSSRRMIFLVVPSFCVIEIIP not soluble
MHTQVHTARLVHTADLDSETRQDIRQMVTGAFAGDFTETDWEHTLGGMHALIWHHGAIIAHAAVIQRRLIYRGNALRCGYVEGVAVRADWRGQRLVSALLDAVEQVMRGAYQLGALSSSARARRLYASRGWLPWHGPTSVLAPTGPVRTPDDDGTVFVLPIDISLDTSAELMCDWRAGDVW soluble
MKYKSVFDIIGPVMVGPSSSHTAGAVRIGLVARKLFGRKPTWARISFYGSFAETYRGHGTDVAIVAGLLGFDTFDERLPNALEIAQAEGVDVSFSAEEAIPHHPNTARLRIGDDEGELELVGISIGGGKIEIVELNGFALKLSGHHPALLIMHNDRYGTIGAVASVLAKRKINIGHMEVSRKEKGKEALMAIEVDQPLTDDLIQELEQLPNIIQVAKLAD not soluble
MTARVIALDLDGTLLTPHKTLLPSSLEALSRAKEAGFQLIIVTGRHHVAIHPFYQALALETPAICCNGTYLYDYQAKTVLDADPMPVDKALQLIDLLDEHQIHGLMYVDDAMLYEHPTGHVVRTSRWAQTLPPEQRPTFTQVSSLAQAARDVNAVWKFALTDEDIPRLQRFGQHVEQALGLECEWSWHDQVDIARKGNSKGKRLTQWIEAQGGSMKNVIAFGDNYNDISMLEAAGTGVAMGNADEAVKARADVVIGDNTTDSIAKFIYTHLL not soluble
MKNWIVGMVALVTMVPVMAATPWQKITHPVAGSPQSIGGFANGCVIGAQPLPLESADYQVMRSDQRRYFGHPDLLNFIHRLSAQTHQQQLGTVLIGDMAMPAGGRFSSGHASHQSGLDVDIWLQLPKQRWSQQQLLKPQPIDLVAVDGKRVIPALWQPQIESLIKLAAKDNDVTRIFVNPAIKKQLCLDAGADRQWLHKVRPWFAHRAHMHVRLRCPANSLECVDQDTPPPGDGCGAELESWFQPPPPSAKPGKTLPPPLPPSCQALLDNHFATE not soluble
LTFSLNFTNKSNDIYGTGWLFDWKGDEKALGIDGSFVPSITSNIDNSLLKDDQFTVYLATNLHVADALRNDQDYEPYKKDQNKQDFTENTKTEFFSLGK soluble
GPLGSMSVAGLKKQFHKATQKVSEKVGGAEGTKLDDDFKEMERKVDVTSRAVMEIMTKTIEYLAHLSSLLQAEALLAEAMLKFGRELGDDCNFGPALGEVGEAMRELSEVKDSLDIEVKQNFIDPLQNLHDKDLREIQHHLKKLEGRRLDFDYKKKRQGKIPDEELRQALEKFDESKEIAESSMFNLLEMDIEQVSQLSALVQAQLEYHKQAVQILQQVTVRLEERIRQA soluble

###

Assay: soluble on expression in E. coli; label from the status in PepcDB or PDB records
parameter_measured: soluble on expression in E. coli

MLSKSKRSCRRRETLRIGEKMSAPITNLQAAQRDAIMNRPAVNGFPHLAETLRRAGVRTNTWWLPAMQSLYETDYGPVLDQGVPLIDGVAEVPAFDRTALVTALRADQAGQTSFREFAAAAWRAGVLRYVVDLENRTCTYFGLHDQTYMEHYAAVEPSGGAPTS not soluble
DHDFKYEVSANLSTVRNRVTSLGFGTDSYISGAYITNVGEEIGKFYGWVYDGIARTQADLDNHATQEGAQIGDCLYKDVSGPDGKPDGKVDANDQVVLGSGMPKINFGLNARFEYKRFDLSIATFGALNYHVSDDIHNSLNSCYGWGNKDVAMLDANRFSEDGSTYLSSVPRTYVTNSASLAWNDLFSDRKIQNAAYWKIANIELGYNFPNEWFGKYVSDVRFYVSAQNLHTFTGYKGYNVDYAGGTFTPGYNFCSYPTARTFMCGVHFTF not soluble

###

Test: soluble on expression in E. coli; label from the status in PepcDB or PDB records
parameter_measured: soluble on expression in E. coli

EQAPQYVDETISLSAKTLFGFDKDSLRAEAQDNLKVLAQRLSRTNIQSVRVEGHTDFMGSDKYNQALSERRAYVVANNLVSNGVPVSRISAVGLGESQAQMTQVCEAEVAKLGAKVSKAKKREALIACIEPDRRVDVKIRSIVTRQVVPAHNHHQHLEHHHHHH soluble
MEEPINVLLLGMDIGDTSDVSNKDAKRTDTIILANFDPITKEAKLISIPRDTRVKIGGKSQKINAAYPIGGEKLVKQLVGNILGVKVDYVVKVDYEGFRGIIDAIGGIDMYIEQDMNYDDPGQDLHIHFNKGETVHLDGKKAEEFFRWRKNNDGTGLVNGDVDRIKNQQKFINAVIDKVLSVSTITKIDSIAEILNKNIETNIPLDVTVAYGLKGLETDKNNIKMMTLPGEGKYVGNVSYYIPDEKATKELRSQLNSSNLSGRKNVIPSAARGDLSIKVLNCTKINGLAANVQKQLNENGYDKVDVGNGDPREKSEILIKDESSRAFMENDLKIENIKKGISSKYDGNGTYDVVILLGKDFKNFGEMKLEHHHHHH soluble
